# IC50 values compiled below
- System Tested: hDYRK1A (Homo sapiens)
- Test Method Notes: DYRK1A Human CMGC Kinase Enzymatic Radiometric Assay [Km ATP]
- Assay type: biochemical
- Details: radiometric assay, Km ATP; read-out: IC50 hDYRK1A

Form: item COC(=O)C1=CN(C)c2cc(OC)ccc2C1 ; test system hDYRK1A (Homo sapiens); IC50: > 10 µM

Form: item CCOC(=O)C1=CN(C)c2cc(OC)ccc2C1 ; test system hDYRK1A (Homo sapiens); IC50: > 10 µM

Form: item COc1ccc2c(c1)N(C)C=C(C(=O)N(C)C)C2 ; test system hDYRK1A (Homo sapiens); IC50: > 10 µM

Form: item COc1ccc2c(c1)N(C)C=C(C#N)C2 ; test system hDYRK1A (Homo sapiens); IC50: > 10 µM

Form: item CCCN1C=C(C(C)=O)Cc2ccc(OC)cc21 ; test system hDYRK1A (Homo sapiens); IC50: 0.153 µM

Now take the following molecule into account.
Form: item CC(=O)C1=CN(C)c2ccc(Cl)cc2C1 ; test system hDYRK1A (Homo sapiens); IC50: > 10 µM

---

- System Tested: hCLK1 (Homo sapiens, UniProt P49759)
- Sequence (P49759 whole entry): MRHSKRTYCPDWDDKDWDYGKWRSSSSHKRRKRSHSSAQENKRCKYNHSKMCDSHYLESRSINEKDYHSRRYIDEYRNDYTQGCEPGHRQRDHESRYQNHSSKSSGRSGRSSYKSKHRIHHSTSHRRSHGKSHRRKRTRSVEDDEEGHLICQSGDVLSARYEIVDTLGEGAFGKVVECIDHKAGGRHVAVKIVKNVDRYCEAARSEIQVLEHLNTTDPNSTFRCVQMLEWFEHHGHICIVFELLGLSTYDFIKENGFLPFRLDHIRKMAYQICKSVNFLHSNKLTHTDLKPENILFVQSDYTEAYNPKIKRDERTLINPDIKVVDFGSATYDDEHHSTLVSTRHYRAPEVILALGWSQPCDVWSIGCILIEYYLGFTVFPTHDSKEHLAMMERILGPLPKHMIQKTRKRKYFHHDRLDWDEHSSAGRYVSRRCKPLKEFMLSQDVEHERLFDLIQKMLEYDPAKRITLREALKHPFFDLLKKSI
- Test Method Notes: CLK1 Human CMGC Kinase Enzymatic Radiometric Assay [Km ATP]
- Format: biochemical
- Details: radiometric assay, Km ATP; read-out: IC50 hCLK1
pIC50: −log10 of the molar value.
# pIC50 values compiled below

Some compounds with known pIC50 results, for comparison:
Measured pIC50, COc1ccc2c(c1)N(C)C=C(C(=O)N(C)C)C2 [Compound 1l] : < 5.00

Measured pIC50, COc1cc2c(cc1OC)N(C)C=C(C(C)=O)C2 [Compound 1f] : < 5.00

Others:
Measured pIC50, CC(=O)C1=CN(C)c2cc(Br)ccc2C1 [Compound 1d] : < 5.00

Measured pIC50, CC(=O)C1=CN(C)c2cc(N(C)C)ccc2C1 [Compound 1c] : < 5.00

Measured pIC50, COc1ccc2c(c1)N(CCc1ccccc1)C=C(C(C)=O)C2 [Compound 1o] : 6.91

---

# IC50 values compiled below
- System Tested: hCLK1 (Homo sapiens)
- Test Method Notes: CLK1 Human CMGC Kinase Enzymatic Radiometric Assay [Km ATP]
- Assay type: biochemical
- Details: radiometric assay, Km ATP; read-out: IC50 hCLK1

Some compounds with known IC50 results, for comparison:
Measured IC50, COc1ccc2c(c1)N(C)C=C(C#N)C2 [Compound 1i] : > 10 µM

Measured IC50, CC(=O)C1=CN(C)c2cc(C(F)(F)F)ccc2C1 [Compound 1b] : > 10 µM

Others:
Measured IC50, COc1ccc2c(c1)N(C)C=C(C(=O)N(C)OC)C2 [Compound 1m] : > 10 µM

---

# melting point values compiled below

Measured melting point, COc1cc2c(cc1OC)N(C)C=C(C(C)=O)C2 [Compound 1f] : 235 to 236 °C

Others:
Measured melting point, CC(=O)C1=CN(C)c2cc(N(C)C)ccc2C1 [Compound 1c] : 126 to 127 °C

Measured melting point, COc1ccc2c(c1)N(C)C=C(C(=O)N(C)C)C2 [Compound 1l] : 219 to 220 °C

Measured melting point, CC(=O)C1=CN(C)c2cc(C(F)(F)F)ccc2C1 [Compound 1b] : 141 to 142 °C

---

- System Tested: hCLK1 (Homo sapiens, UniProt P49759)
- Test Method Notes: CLK1 Human CMGC Kinase Enzymatic Radiometric Assay [Km ATP]
- Assay type: biochemical
- Details: radiometric assay, Km ATP; read-out: IC50 hCLK1
Measured Metric: IC50

Measured IC50, CC(=O)C1=CN(C)c2ccccc2C1 : > 10 µM

Measured IC50, CC(=O)C1=CN(C)c2cc3c(cc2C1)OCO3 : > 10 µM

Now take the following compound into account.
Measured IC50, CC(=O)C1=CN(C)c2ccc(Cl)cc2C1 : > 10 µM

---

# melting point values compiled below

Measured melting point, CC(=O)C1=CN(C)c2cc(Br)ccc2C1 : 179 to 180 °C

Measured melting point, COc1ccc2cc(C(C)=O)cnc2c1 : 129 to 130 °C

Measured melting point, CC(=O)C1=CN(C)c2ccc(Cl)cc2C1 : 124 to 125 °C

Measured melting point, CCC[n+]1cc(C(C)=O)cc2ccc(OC)cc21.[Br-] : 183 to 184 °C

Measured melting point, COc1ccc2c(c1)N(Cc1ccccc1)C=C(C(C)=O)C2 : 129 to 130 °C

Now take the following compound into account.
Measured melting point, CC(=O)C1=CN(C)c2cc3c(cc2C1)OCO3 : 152 to 153 °C
